# test-details: restoration of touch response, mutant HTT neurons – whole organism, C. elegans mechanosensory neurons, N-terminal huntingtin (AID 1599)
# condition-info: C. elegans polyQ-huntingtin mechanosensory neurons, stronger effect = higher value
Potency and affinity values are given separately.
Label false (0) if rescue above control falls below -3; label true (1) in every other case.

Sample answers from the record:
compound=O=NN(CCCl)C(=O)NCCCl class_name="true (1)"
compound=Nc1ccc(S(N)(=O)=O)cc1 class_name="true (1)"
compound=CC(=O)NCCCCCC(=O)O class_name="true (1)"

Problem: Does the compound OC(CCN1CCCCC1)(c1ccccc1)c1ccccc1 have recorded rescue above control that is -3 or more?
Solution: true (1)

Problem: Does the compound Cc1ccc(C(=O)C(C)CN2CCCCC2)cc1 (configuration not stated) have recorded rescue above control that is -3 or more?
Solution: true (1)

Problem: Does the compound O=C1NCC2(CCN(CCc3ccccc3)CC2)O1 have recorded rescue above control that is -3 or more?
Solution: false (0)

Problem: Does the compound CN(C)CCCN1c2ccccc2Sc2ccccc21 have recorded rescue above control that is -3 or more?
Solution: true (1)

Problem: Does the compound CN1C(C(=O)Nc2ccccn2)=C(O)c2sccc2S1(=O)=O have recorded rescue above control that is -3 or more?
Solution: false (0)
